Attribution: paper PMC4585259

Parameter Ratio Tau Offset: see the listing below.
# systemTested: rNav1.2 sodium channels (Rattus norvegicus, UniProt P04775)
# Construct: host or cells: HEK-293
# Sequence (P04775 whole entry): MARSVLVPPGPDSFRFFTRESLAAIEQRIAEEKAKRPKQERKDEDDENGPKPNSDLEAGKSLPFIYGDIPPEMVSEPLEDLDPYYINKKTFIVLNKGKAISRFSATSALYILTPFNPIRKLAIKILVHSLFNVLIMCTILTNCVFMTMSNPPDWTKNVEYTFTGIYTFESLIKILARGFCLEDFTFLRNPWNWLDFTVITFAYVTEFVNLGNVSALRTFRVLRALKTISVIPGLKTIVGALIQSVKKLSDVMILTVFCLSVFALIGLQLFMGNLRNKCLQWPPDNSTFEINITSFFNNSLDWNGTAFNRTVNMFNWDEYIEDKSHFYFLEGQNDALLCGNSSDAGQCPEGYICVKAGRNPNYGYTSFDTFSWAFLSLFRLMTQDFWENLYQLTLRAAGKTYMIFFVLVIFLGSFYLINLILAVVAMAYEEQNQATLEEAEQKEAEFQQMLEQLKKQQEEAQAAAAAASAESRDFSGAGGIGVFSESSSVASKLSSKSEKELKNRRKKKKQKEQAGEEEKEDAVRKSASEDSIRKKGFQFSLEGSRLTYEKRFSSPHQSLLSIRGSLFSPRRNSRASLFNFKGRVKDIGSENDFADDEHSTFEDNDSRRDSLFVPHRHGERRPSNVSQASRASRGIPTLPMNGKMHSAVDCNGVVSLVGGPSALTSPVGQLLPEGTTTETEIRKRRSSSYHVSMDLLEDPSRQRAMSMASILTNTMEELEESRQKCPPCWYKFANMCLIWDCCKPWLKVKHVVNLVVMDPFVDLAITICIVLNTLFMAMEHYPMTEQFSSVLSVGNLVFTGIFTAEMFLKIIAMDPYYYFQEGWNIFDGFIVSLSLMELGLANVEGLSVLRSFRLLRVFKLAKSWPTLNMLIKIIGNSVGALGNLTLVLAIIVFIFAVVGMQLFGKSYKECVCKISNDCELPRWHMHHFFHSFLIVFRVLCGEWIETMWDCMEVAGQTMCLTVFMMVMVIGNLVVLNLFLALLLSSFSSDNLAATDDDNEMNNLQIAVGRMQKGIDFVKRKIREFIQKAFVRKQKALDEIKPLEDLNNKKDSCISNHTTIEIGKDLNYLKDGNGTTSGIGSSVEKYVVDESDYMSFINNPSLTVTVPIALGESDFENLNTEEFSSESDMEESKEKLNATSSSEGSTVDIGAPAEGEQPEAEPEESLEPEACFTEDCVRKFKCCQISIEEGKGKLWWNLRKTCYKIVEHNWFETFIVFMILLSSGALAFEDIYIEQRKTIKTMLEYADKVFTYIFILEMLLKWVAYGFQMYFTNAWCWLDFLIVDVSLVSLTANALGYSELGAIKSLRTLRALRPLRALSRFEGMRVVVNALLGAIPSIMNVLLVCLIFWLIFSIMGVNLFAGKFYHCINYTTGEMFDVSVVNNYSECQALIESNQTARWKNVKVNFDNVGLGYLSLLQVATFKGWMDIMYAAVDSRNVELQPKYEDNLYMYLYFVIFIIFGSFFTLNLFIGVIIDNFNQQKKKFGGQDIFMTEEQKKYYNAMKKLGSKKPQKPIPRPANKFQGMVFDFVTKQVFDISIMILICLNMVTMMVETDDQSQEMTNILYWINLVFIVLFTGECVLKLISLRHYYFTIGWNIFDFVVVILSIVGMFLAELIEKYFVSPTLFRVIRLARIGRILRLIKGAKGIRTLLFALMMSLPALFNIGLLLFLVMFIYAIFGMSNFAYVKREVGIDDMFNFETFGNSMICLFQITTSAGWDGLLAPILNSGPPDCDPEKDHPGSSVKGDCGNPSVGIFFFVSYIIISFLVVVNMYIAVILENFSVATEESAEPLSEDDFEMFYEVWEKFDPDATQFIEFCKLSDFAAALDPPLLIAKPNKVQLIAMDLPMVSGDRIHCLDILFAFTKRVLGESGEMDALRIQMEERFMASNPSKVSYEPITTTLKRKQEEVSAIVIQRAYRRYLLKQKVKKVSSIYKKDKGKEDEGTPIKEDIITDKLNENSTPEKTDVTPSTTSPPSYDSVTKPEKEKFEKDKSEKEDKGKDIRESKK
# method: QPatch automated patch clamp, inhibition of sodium currents evoked by 5 Hz trains at three extracellular pH values
# Assay type: cell-based
# testConditions: pH 6.0/8.6; cc 100 mM

{"compound": "Cc1ccc(C(=O)C(C)CN2CCCCC2)cc1 (stereo not drawn)", "Ratio Tau Offset": 1.286}
{"compound": "COc1ccccc1OCC(O)CN1CCN(CC(=O)Nc2c(C)cccc2C)CC1 (stereo not drawn)", "Ratio Tau Offset": 1.663}
{"compound": "CCCCN1CCCCC1C(=O)Nc1c(C)cccc1C (stereo not drawn)", "Ratio Tau Offset": 4.516}
{"compound": "CN1CCN2c3ncccc3Cc3ccccc3C2C1 (stereo not drawn)", "Ratio Tau Offset": 0.960}
{"compound": "Nc1c(Br)cc(Br)cc1CN[C@H]1CC[C@H](O)CC1", "Ratio Tau Offset": 0.708}
{"compound": "COc1ccc(C(CN(C)C)C2(O)CCCCC2)cc1 (stereo not drawn)", "Ratio Tau Offset": 1.330}
{"compound": "C[Si](C)(Cc1ccc(F)cc1)CN1CCCCC1", "Ratio Tau Offset": 0.894}
{"compound": "CC12CC3CC(C)(C1)CC(N)(C3)C2 [memantine]", "Ratio Tau Offset": 0.550}
{"compound": "CNCCC(Oc1ccccc1OC)c1ccccc1 (stereo not drawn)", "Ratio Tau Offset": 0.947}

###

# systemTested: rNav1.2 sodium channels (Rattus norvegicus, UniProt P04775)
# Construct: host or cells: HEK-293
# method: QPatch automated patch clamp, inhibition of sodium currents evoked by 5 Hz trains at three extracellular pH values
# Type: cell-based
# testConditions: pH 6.0/8.6; cc 30 mM

{"compound": "Cc1nc2sccn2c(=O)c1CCN1CCC(=C(c2ccc(F)cc2)c2ccc(F)cc2)CC1", "Ratio Reversibility": 4.330}
{"compound": "Fc1ccc([C@@H]2CCNC[C@H]2COc2ccc3c(c2)OCO3)cc1", "Ratio Reversibility": 6.394}
{"compound": "CN(C)CCCN1c2ccccc2Sc2ccc(Cl)cc21", "Ratio Reversibility": 1.432}
{"compound": "CN(C)CCC=C1c2ccccc2CCc2ccccc21", "Ratio Reversibility": 5.190}
{"compound": "CCc1nn(CCCN2CCN(c3cccc(Cl)c3)CC2)c(=O)n1CCOc1ccccc1", "Ratio Reversibility": 1.152}
{"compound": "CC12CC3CC(C)(C1)CC(N)(C3)C2 [memantine]", "Ratio Reversibility": 1.464}

###

# systemTested: rNav1.2 sodium channels (Rattus norvegicus)
# Construct: host or cells: HEK-293
# method: QPatch automated patch clamp, inhibition of sodium currents evoked by 5 Hz trains at three extracellular pH values
# Assay type: cell-based
# testConditions: pH 6.0/7.3; cc 30 mM
# Experimental: HEK-293 cells stably expressing rNav1.2 sodium channels were obtained from NeuroSearch (Ballerup, Denmark). The cells were grown in Dulbecco's modified Eagle medium supplemented with 10% FBS. Prior to use, the cells were trypsinized and subsequently kept in suspension in the QPatch cell storage facility in CHO-S- SFM-II medium. […] Data were sampled at a frequency of 25 kHz and filtered at 5 kHz. Junction potential was calculated to be −11 mV and was corrected for. […]
measuredProperty: Ratio Tau Onset

{"compound": "Cc1nc2sccn2c(=O)c1CCN1CCC(=C(c2ccc(F)cc2)c2ccc(F)cc2)CC1", "number": 0.656}
{"compound": "CN(C)CCC=C1c2ccccc2CCc2ccccc21", "number": 1.086}
{"compound": "CC12CC3CC(C)(C1)CC(N)(C3)C2 [memantine]", "number": 0.877}
{"compound": "CN(C)CCCN1c2ccccc2Sc2ccc(Cl)cc21", "number": 0.874}
{"compound": "Fc1ccc([C@@H]2CCNC[C@H]2COc2ccc3c(c2)OCO3)cc1", "number": 1.411}
{"compound": "CCc1nn(CCCN2CCN(c3cccc(Cl)c3)CC2)c(=O)n1CCOc1ccccc1", "number": 0.875}
